- experiment notes: PET hydrolysis product formed (TPA+MHET+BHET, UV-Vis) per mg enzyme (mmol/mg enzyme); higher = more PET depolymerisation activity; extreme values may be limits of the assay
- condition parameters: PET substrate: cryPow; 60 °C; pH 4.5; 24 h
experimental endpoint: PET hydrolysis product formed
Numbers only.

Below, 2 sequences whose answers are already recorded.
| sequence | PET hydrolysis product formed |
| --- | --- |
| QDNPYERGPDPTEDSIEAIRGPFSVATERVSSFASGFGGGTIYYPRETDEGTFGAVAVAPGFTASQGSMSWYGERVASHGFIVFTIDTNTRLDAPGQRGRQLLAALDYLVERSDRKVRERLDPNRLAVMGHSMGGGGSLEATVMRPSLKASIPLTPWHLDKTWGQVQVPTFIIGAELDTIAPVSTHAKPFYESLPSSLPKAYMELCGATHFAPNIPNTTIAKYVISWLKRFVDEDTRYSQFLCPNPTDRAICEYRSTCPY [Cut190*SS] | 0 |
| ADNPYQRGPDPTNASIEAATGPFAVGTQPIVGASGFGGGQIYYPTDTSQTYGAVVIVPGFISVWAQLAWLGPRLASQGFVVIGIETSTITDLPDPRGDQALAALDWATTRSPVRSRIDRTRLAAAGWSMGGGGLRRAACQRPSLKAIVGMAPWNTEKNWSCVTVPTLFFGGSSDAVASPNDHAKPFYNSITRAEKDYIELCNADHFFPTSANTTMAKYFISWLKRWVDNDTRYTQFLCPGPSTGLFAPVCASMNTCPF [CaPETaseM9] | 0.016 |

# ---- query sequence ----
INPUT: Give the measured PET hydrolysis product formed for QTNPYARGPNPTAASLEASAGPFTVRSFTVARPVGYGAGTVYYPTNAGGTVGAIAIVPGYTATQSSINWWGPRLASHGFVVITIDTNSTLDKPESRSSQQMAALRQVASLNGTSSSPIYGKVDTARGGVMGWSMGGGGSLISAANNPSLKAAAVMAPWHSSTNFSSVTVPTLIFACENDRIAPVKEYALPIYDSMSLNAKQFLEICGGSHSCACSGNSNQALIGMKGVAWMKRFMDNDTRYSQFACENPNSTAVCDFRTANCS [HotPETase]
OUTPUT: 0

###

Provide the reported terephthalic acid of each item.
- experiment notes: terephthalic acid (TPA) released, HPLC; higher = more TPA released; extreme values may be limits of the assay
- condition parameters: PET substrate: aFilm; 60 °C; pH 4.5; 24 h
Give bare numbers, in mM.

| sequence | experimental endpoint | assay result |
| --- | --- | --- |
| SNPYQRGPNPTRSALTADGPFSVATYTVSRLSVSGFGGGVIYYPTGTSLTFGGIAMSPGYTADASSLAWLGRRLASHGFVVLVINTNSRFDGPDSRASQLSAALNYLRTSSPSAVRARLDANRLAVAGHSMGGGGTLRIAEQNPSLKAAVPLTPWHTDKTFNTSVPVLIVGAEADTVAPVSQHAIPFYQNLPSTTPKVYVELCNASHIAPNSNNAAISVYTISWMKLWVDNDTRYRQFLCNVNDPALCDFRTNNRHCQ [LCC-ICCG] | terephthalic acid | 0.0137 |
| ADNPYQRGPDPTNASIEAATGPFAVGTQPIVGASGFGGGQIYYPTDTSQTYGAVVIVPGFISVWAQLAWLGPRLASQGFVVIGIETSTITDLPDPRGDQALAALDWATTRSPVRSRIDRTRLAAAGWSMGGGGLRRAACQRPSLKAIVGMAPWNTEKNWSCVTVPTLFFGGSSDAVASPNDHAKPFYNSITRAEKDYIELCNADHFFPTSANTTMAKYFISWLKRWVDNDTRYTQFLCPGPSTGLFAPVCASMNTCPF [CaPETaseM9] | terephthalic acid | 0.00338 |

// next entry
INPUT: Query terephthalic acid for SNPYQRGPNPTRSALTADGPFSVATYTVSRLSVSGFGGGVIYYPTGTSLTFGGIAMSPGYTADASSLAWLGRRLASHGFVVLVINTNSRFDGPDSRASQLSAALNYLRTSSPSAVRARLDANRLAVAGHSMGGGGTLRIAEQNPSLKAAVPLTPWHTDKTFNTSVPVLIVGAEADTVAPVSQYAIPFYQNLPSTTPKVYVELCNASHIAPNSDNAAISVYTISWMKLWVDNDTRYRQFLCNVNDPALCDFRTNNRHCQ [LCC-A2]
OUTPUT: 0.195

###

- experiment notes: MHET released, HPLC; higher = more MHET released; extreme values may be limits of the assay
- condition parameters: PET substrate: cryPow; 60 °C; pH 9.5; 24 h
Could you please report measured MHET released for the items listed next?
Answers are plain numbers, in mM.

| sequence | MHET released [mM] |
| --- | --- |
| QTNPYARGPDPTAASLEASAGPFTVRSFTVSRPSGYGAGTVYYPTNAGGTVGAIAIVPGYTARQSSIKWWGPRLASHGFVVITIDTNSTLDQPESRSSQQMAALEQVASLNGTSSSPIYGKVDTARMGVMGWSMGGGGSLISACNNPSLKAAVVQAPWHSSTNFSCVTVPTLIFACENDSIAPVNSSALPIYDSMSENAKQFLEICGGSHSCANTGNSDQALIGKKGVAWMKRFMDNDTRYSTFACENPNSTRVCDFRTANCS [Z1-PETase] | 0.071 |

// next entry
INPUT: Supply MHET released value. Item: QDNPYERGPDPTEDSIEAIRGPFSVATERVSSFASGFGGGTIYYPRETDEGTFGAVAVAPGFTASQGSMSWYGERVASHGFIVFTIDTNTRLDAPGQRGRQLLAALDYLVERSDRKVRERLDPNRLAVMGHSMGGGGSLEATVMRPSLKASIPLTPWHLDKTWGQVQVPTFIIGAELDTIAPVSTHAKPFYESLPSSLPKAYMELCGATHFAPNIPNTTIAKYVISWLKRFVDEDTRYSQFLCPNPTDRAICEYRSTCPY [Cut190*SS]
OUTPUT: 0.11

###

For each entry below, report its terephthalic acid value.
- experiment notes: terephthalic acid (TPA) released, HPLC; higher = more TPA released; extreme values may be limits of the assay
- condition parameters: PET substrate: aFilm; 70 °C; pH 6.5; 24 h
Give bare numbers, in mM.

Worked cases, answers included:
| sequence | terephthalic acid (mM) |
| --- | --- |
| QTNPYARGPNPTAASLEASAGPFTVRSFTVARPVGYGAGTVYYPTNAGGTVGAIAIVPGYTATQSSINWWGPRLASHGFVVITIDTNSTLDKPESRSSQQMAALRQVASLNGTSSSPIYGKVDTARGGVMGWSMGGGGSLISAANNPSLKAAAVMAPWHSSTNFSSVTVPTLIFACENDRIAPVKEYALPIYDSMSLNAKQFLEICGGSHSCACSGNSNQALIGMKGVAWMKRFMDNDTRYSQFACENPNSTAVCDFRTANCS [HotPETase] | 0.0729 |
| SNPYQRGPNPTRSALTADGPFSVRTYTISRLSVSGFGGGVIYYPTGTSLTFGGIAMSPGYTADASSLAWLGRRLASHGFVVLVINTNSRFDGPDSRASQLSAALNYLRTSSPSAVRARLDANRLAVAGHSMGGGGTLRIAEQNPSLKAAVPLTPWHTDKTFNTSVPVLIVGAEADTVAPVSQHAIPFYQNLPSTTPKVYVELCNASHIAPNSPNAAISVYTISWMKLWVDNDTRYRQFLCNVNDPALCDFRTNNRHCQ [LCC-ICCG RIP] | 0.361 |

INPUT: Supply terephthalic acid value. Item: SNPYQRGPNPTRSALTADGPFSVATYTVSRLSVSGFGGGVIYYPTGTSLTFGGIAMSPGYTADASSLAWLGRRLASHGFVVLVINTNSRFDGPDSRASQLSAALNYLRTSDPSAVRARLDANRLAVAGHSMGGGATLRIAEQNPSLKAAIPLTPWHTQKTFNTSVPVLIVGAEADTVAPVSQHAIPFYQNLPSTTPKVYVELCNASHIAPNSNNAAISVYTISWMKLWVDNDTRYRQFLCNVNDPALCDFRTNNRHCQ [LCC-ICCG DAQI]
OUTPUT: 0.296

###

Please provide measured MHET released for the entries that follow.
- experiment notes: MHET released, HPLC; higher = more MHET released; extreme values may be limits of the assay
- condition parameters: PET substrate: aFilm; 60 °C; pH 7.5; 24 h
Answers are plain numbers, in mM.

| sequence | units | MHET released |
| --- | --- | --- |
| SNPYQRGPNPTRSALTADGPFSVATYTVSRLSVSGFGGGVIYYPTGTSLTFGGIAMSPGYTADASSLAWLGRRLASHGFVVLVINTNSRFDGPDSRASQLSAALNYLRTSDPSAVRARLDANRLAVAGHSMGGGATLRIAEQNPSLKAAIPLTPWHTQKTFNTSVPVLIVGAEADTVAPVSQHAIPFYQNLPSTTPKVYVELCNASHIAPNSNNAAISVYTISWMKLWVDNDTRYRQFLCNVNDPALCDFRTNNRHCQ [LCC-ICCG DAQI] | mM | 3.69 |
| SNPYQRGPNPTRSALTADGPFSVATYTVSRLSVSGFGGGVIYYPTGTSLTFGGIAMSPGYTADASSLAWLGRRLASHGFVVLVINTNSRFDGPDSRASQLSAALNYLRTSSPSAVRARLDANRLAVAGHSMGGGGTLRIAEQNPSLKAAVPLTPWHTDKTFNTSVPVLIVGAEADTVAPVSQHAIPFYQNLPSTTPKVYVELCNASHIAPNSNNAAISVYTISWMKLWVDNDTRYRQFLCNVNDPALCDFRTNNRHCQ [LCC-ICCG] | mM | 3.92 |
| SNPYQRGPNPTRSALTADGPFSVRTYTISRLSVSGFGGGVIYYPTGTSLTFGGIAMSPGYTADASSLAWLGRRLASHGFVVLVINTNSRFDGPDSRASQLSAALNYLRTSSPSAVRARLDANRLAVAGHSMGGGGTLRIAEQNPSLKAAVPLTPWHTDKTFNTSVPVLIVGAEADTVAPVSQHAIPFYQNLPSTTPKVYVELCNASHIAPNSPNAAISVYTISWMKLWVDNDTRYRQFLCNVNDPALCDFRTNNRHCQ [LCC-ICCG RIP] | mM | 1.93 |

Next:
INPUT: Give the value of MHET released reported for the following: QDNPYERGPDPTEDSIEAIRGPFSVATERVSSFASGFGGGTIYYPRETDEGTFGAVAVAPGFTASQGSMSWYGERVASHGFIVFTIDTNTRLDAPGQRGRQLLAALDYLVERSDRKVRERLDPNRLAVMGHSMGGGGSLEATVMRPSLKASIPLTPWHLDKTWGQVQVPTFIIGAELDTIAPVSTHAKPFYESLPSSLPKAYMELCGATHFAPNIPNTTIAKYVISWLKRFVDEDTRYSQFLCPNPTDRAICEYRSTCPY [Cut190*SS]
OUTPUT: 0.208
